MIC: recorded values
# Test system: Escherichia coli
# Protocol summary: Antibacterial activity against Escherichia coli ATCC 25922 assessed as growth inhibition incubated for 18 hrs by broth dilution method
# Assay type: functional
# Condition description: ATCC 25922, 18 h

Molecule	Reported relation	MIC / µM
COc1cccc2c(C(=O)C(=O)NCCCNCCCCNCCCNC(=O)C(=O)c3c[nH]c4c(OC)cccc34)c[nH]c12	>	200
Cc1ccc2[nH]cc(C(=O)C(=O)NCCCNCCCCNCCCNC(=O)C(=O)c3c[nH]c4ccc(C)cc34)c2c1.O=C(O)C(F)(F)F.O=C(O)C(F)(F)F	=	200
CC[C@H]1OC(=O)[C@H](C)[C@@H](O[C@H]2C[C@@](C)(OC)[C@@H](O)[C@H](C)O2)[C@H](C)[C@@H](O[C@@H]2O[C@H](C)C[C@H](N(C)C)[C@H]2O)[C@](C)(O)C[C@@H](C)C(=O)[C@H](C)[C@@H](O)[C@]1(C)O [ERYTHROMYCIN]	>	200
N#Cc1ccc2[nH]cc(C(=O)C(=O)NCCCNCCCCNCCCNC(=O)C(=O)c3c[nH]c4ccc(C#N)cc34)c2c1.O=C(O)C(F)(F)F.O=C(O)C(F)(F)F	>	200
COC(=O)c1ccc2[nH]cc(C(=O)C(=O)NCCCNCCCCNCCCNC(=O)C(=O)c3c[nH]c4ccc(C(=O)OC)cc34)c2c1.O=C(O)C(F)(F)F.O=C(O)C(F)(F)F	=	200
O=C(NCCCNCCCCNCCCNC(=O)C(=O)c1c[nH]c2cc(Cl)ccc12)C(=O)c1c[nH]c2cc(Cl)ccc12.O=C(O)C(F)(F)F.O=C(O)C(F)(F)F	=	50
CCn1cc(C(=O)O)c(=O)c2ccc(C)nc21 [NALIDIXIC ACID]	>	200
O=C(NCCCNCCCCNCCCNC(=O)C(=O)c1c[nH]c2cc(C(F)(F)F)ccc12)C(=O)c1c[nH]c2cc(C(F)(F)F)ccc12.O=C(O)C(F)(F)F.O=C(O)C(F)(F)F	=	100
COc1ccc2[nH]cc(C(=O)C(=O)NCCCNCCCCNCCCNC(=O)C(=O)c3c[nH]c4ccc(OC)cc34)c2c1	>	200
C[C@H]1c2cccc(O)c2C(=O)C2=C(O)[C@]3(O)C(=O)C(C(N)=O)=C(O)[C@@H](N(C)C)[C@@H]3[C@@H](O)[C@@H]21 [DOXYCYCLINE]	=	25
Cc1cccc2c(C(=O)C(=O)NCCCNCCCCNCCCNC(=O)C(=O)c3c[nH]c4c(C)cccc34)c[nH]c12.O=C(O)C(F)(F)F.O=C(O)C(F)(F)F	>	200
O=C(NCCCNCCCCNCCCNC(=O)C(=O)c1c[nH]c2cccc(F)c12)C(=O)c1c[nH]c2cccc(F)c12	=	100

The reported numbers originate from ChEMBL document CHEMBL4311975.
